Target: HBO-KAT7 (Homo sapiens, UniProt O95251)
Construct: encoding amino acid residues 325 to 611 (Uniprot 095251-1) of human KAT7; made in house; host or cells: E. coli BL21 DE3 RIL
Sequence (O95251 with tags, fused parts or gaps): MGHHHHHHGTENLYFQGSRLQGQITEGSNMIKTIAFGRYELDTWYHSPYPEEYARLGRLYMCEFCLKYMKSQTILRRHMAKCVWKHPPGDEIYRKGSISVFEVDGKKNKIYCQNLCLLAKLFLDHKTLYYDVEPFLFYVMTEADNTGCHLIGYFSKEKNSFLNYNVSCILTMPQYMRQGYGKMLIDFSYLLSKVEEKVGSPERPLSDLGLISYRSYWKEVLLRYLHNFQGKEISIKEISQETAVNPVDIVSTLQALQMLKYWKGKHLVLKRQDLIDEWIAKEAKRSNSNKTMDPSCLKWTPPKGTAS
Test: Acetyltransferase biochemical assay (AlphaScreen), KAT7
Conditions: Table 3 (HBO-KAT7); 0.4 μM Acetyl coenzyme A, histone H3.1, 40 nM enzyme
Parameter measured: IC50 (nM)

Worked set:
O=C(NCC(F)(c1ccccc1)c1ncco1)C1=Nc2ccc(I)cc2S(=O)(=O)N1 (stereo not shown) [Example 177] = 64
O=C(NCCc1ccccc1OC(F)(F)F)C1=Nc2ccc(I)cc2S(=O)(=O)N1 [Example 92] = 675

(A) O=C(NCC(c1ccccc1)c1ncco1)C1=Nc2cnccc2S(=O)(=O)N1 (stereo not shown) [Example 98]
(B) O=C(NCC(c1ccccc1)c1ccccc1)C1=Nc2ccccc2S(=O)(=O)N1 [Example 68]
Data request: IC50 comparison. Which is larger, A or B ? Please reply using the label of the selected record.
Data returned: A
(A: 68600 nM, B: 462 nM)

* * *

Target: MOF-KAT8 (Homo sapiens, UniProt Q9H7Z6)
Sequence (Q9H7Z6 177-447): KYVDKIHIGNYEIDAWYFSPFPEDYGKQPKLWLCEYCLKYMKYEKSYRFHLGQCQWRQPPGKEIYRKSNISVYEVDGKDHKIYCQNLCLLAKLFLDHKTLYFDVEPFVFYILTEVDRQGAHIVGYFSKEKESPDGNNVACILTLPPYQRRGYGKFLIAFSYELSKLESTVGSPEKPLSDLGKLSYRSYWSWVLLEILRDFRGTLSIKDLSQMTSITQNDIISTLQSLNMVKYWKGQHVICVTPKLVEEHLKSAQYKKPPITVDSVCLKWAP
Experiment: Revised Acetyltransferase Biochemical Assay, KAT8
pIC50: −log10 of the molar value.
Parameter measured: pIC50

(a) O=C(NCCc1ccccc1-c1ncco1)C1=Nc2ccccc2S(=O)(=O)N1 [Example 7]
(b) O=C(NCC(F)(c1ccccc1)c1ncco1)C1=Nc2ccc(I)cc2S(=O)(=O)N1 (centres unmarked) [Example 177]
Data request: Would you mind telling me which has the lower recorded pIC50 between a and b ? The response must carry the label of the picked entry.
Data returned: a

(1) O=C(NCC(c1ccccc1)c1nccs1)C1=Nc2ccc(I)cc2S(=O)(=O)N1 (centres unmarked) [Example 167]
(2) O=C(NCC(c1ccccc1)c1nc(CO)no1)C1=Nc2ccc(I)cc2S(=O)(=O)N1 (centres unmarked) [Example 59]
Data request: Choose between 1 and 2 : whose measured pIC50 value is numerically larger? I would appreciate it if you answered with the label of your choice.
Data returned: 1
(1: 5.08, 2: 4.57)

* * *

Target: TIP60-KAT5 (Homo sapiens, UniProt Q92993)
Construct: encoding amino acid residues 2 to 461 (Uniprot Q92993-2) of human KAT5 isoform; made in house; host or cells: E. coli BL21 DE3
Sequence (Q92993 2-461 isoform Q92993-2): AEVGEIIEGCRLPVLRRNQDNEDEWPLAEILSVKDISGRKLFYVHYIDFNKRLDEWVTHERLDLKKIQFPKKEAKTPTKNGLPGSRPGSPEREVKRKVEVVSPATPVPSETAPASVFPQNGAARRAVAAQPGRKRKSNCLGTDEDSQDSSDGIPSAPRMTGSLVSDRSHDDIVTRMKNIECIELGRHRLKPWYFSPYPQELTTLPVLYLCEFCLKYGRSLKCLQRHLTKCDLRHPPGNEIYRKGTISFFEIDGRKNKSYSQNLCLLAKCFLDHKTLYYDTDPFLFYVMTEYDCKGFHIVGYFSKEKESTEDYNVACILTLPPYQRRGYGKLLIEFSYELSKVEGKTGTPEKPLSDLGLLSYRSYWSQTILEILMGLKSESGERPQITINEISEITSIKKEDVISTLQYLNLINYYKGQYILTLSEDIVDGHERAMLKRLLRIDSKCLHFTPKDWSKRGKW
Experiment: Revised Acetyltransferase Biochemical Assay, KAT5
Settings: 10 nM KAT5, 1 μM AcCoA, 100 nM histone H4, 90 min
pIC50: −log10 of the molar value.
Parameter measured: pIC50

Solved entries (count: 6):
O=C(NCC(c1cccc(Cl)c1)c1ncco1)C1=Nc2ccc(I)cc2S(=O)(=O)N1 (stereo not shown) = 6.66
O=C(NCC1(c2ncco2)CCCC1)C1=Nc2ccccc2S(=O)(=O)N1 = 3.91
O=C(NCC(c1ccc(F)cc1)c1ccccn1)C1=Nc2ccc(Br)cc2S(=O)(=O)N1 (stereo not shown) = 5.51
O=C(NCCc1ccccc1C(F)(F)F)C1=Nc2ccc(I)cc2S(=O)(=O)N1 = 6.68
COCCC(CNC(=O)C1=Nc2ccc(I)cc2S(=O)(=O)N1)c1ccccc1 (stereo not shown) = 5.84
O=C(NCC(c1ccccc1)c1nccs1)C1=Nc2ccc(I)cc2S(=O)(=O)N1 (stereo not shown) = 7.25

(I) COc1cc(C)cc(C(CNC(=O)C2=Nc3ccc(I)cc3S(=O)(=O)N2)c2ncco2)c1 (stereo not shown)
(II) O=C(NCC(CO)C1CCCCC1)C1=Nc2ccc(Cl)cc2S(=O)(=O)N1 (stereo not shown)
Data request: Consider entries I and II . Which has the numerically lower pIC50? // respond with label for picked entry
Data returned: II
(II: 4.81, I: 6.09)

(A) O=C(NCC(c1ccccc1)c1ncco1)C1=Nc2ccncc2S(=O)(=O)N1 (stereo not shown)
(B) O=C(NCCC1CCCCC1)C1=Nc2ccc(-c3c[nH]nn3)cc2S(=O)(=O)N1
(C) O=C(NCC(c1ncco1)c1ccccc1OC(F)F)C1=Nc2ccc(I)cc2S(=O)(=O)N1 (stereo not shown)
(D) O=C(NCCc1ccccc1-n1nccn1)C1=Nc2ccc(I)cc2S(=O)(=O)N1
(E) O=C(NCCc1ccccc1C(=O)O)C1=Nc2ccc(I)cc2S(=O)(=O)N1
Data request: Hey, quick one: sort these by pIC50, largest value first please. Provide your answer as the labels ordered per the instruction.
Data returned: C, D, E, A, B
(C: 7.54, D: 7.24, E: 5.57, A: 4.58, B: 4.36)

* * *

Target: TIP60-KAT5 (Homo sapiens)
Construct: encoding amino acid residues 2 to 461 (Uniprot Q92993-2) of human KAT5 isoform; made in house; host or cells: E. coli BL21 DE3
Experiment: Revised Acetyltransferase Biochemical Assay, KAT5
Details: 10 nM KAT5, 1 μM AcCoA, 100 nM histone H4, 90 min
pIC50: −log10 of the molar value.
Parameter measured: pIC50

O=C(NCCc1ccccc1-n1ccnc1)C1=Nc2ccc(I)cc2S(=O)(=O)N1 = 4.95
COCc1ccccc1CCNC(=O)C1=Nc2ccc(I)cc2S(=O)(=O)N1 = 6.81
O=C(NCCc1ccccc1-c1n[nH]c(=O)o1)C1=Nc2ccc(I)cc2S(=O)(=O)N1 = 7.60
Cc1cccc(C(CNC(=O)C2=Nc3ccc(I)cc3S(=O)(=O)N2)c2ncco2)c1 (stereo not drawn) = 6.81
Cn1nc(-c2ccccc2CCNC(=O)C2=Nc3ccc(Cl)cc3S(=O)(=O)N2)oc1=O = 5.38

(P) O=C(NCC(c1ccccc1)c1ncco1)C1=Nc2ccc(F)cc2S(=O)(=O)N1 (single isomer, unassigned) [Example 144]
(Q) O=C(NCC(c1ccccc1)c1ncco1)C1=Nc2ccc(F)cc2S(=O)(=O)N1 (stereo not drawn) [Example 36]
Data request: From the items above, decide which of P and Q has the lower pIC50 reading. Could you answer with the label of the item you picked?
Data returned: Q

* * *

Test system: histone H3 Lysine 14 acetylation (HBO1 mediated) in U2OS cells
Assay: Histone H3 Lysine 14 Acetylation Biomarker Assay (384-well, U2OS)
Type: cell-based
Conditions: Homo sapiens, serum free medium, 24 hours incubation
pIC50: −log10 of the molar value.
Parameter measured: pIC50

(A) O=C(NCC(c1ccc(F)cc1)c1ncco1)C1=Nc2ccc(I)cc2S(=O)(=O)N1 (stereo not drawn)
(B) O=C(NCC(c1ccccc1)c1nncs1)C1=Nc2ccc(I)cc2S(=O)(=O)N1 (stereo not drawn)
Data request: Please indicate which has the smaller reported pIC50: A , or B . // caller expects the label of the chosen entry
Data returned: B

* * *

Biological target: MOZ-KAT6A (Homo sapiens, UniProt Q92794, A567V)
Construct: encoding amino acid residues 507 to 778 (Uniprot Q92794-1) of human KAT6A; made in house; host or cells: E. coli BL21 DE3
Sequence (Q92794 507-778 A567V limits assumed): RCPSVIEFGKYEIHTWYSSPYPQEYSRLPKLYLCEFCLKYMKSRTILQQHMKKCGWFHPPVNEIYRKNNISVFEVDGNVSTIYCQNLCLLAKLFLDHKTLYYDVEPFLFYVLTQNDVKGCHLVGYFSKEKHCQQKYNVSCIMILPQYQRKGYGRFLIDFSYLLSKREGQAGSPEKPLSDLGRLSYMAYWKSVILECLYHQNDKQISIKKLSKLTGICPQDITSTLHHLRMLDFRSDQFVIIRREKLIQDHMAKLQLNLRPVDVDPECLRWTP
Assay: Revised Acetyltransferase Biochemical Assay, KAT6A
Details: Table 8 (MOZ-KAT6A), 1 μM Acetyl coenzyme A
Parameter measured: IC50 (nM)

Some solved entries appear below for comparison.
Cn1nc(-c2ccccc2CCNC(=O)C2=Nc3ccc(Cl)cc3S(=O)(=O)N2)oc1=O [Example 193] = 493
Cn1cc(-c2ccc3c(c2)S(=O)(=O)NC(C(=O)NCC(c2ccccc2)c2ncco2)=N3)cn1 (stereo not drawn) [Example 25] = 64
CC(C)OC(=O)NC(CNC(=O)C1=Nc2ccccc2S(=O)(=O)N1)c1ccccc1 (stereo not drawn) [Example 50] = 6190
COc1cc(C)cc(C(CNC(=O)C2=Nc3ccc(Cl)cc3S(=O)(=O)N2)c2ncco2)c1 (stereo not drawn) [Example 159] = 371
CS(=O)(=O)Nc1ccc2c(c1)S(=O)(=O)NC(C(=O)NCC(c1ccccc1)c1ncco1)=N2 (stereo not drawn) [Example 153] = 54

(A) COCc1nnc(C(CNC(=O)C2=Nc3ccc(I)cc3S(=O)(=O)N2)c2ccccc2)o1 (stereo not drawn) [Example 171]
(B) O=C(NCC(c1ccccc1)c1ncco1)C1=Nc2ccc(I)cc2S(=O)(=O)N1 (single isomer, unassigned) [Example 146]
Data request: Consider A and B . Which of these has its IC50 at a higher number? When you have decided, please share the label of that item.
Data returned: A
(A: 24 nM, B: 2 nM)

(1) CC(CNC(=O)C1=Nc2ccccc2S(=O)(=O)N1)(c1ccccc1)c1ccccc1 [Example 206]
(2) O=C(NCCC1CCCCC1)C1=Nc2ccc(I)cc2S(=O)(=O)N1 [Example 204]
Data request: Parameter metric = IC50. Return the lower-valued option from 1 and 2 . Select an item and report its label.
Data returned: 2
(2: 122 nM, 1: 1390 nM)

(a) COC(=O)c1ccccc1C(CNC(=O)C1=Nc2ccccc2S(=O)(=O)N1)c1ncco1 (stereo not drawn) [Example 219]
(b) O=C(NCC(c1cccc(I)c1)c1ncco1)C1=Nc2ccccc2S(=O)(=O)N1 (stereo not drawn) [Example 160]
Data request: In terms of reported IC50, does a or b have the smaller number? // return label of chosen record
Data returned: b

(I) O=C(NCCc1ccccc1OC(F)F)C1=Nc2ccc(I)cc2S(=O)(=O)N1 [Example 91]
(II) CC(=O)c1ccc2c(c1)S(=O)(=O)NC(C(=O)NCC(c1ccccc1)c1ncco1)=N2 (stereo not drawn) [Example 43]
(III) COc1ccccc1CCNC(=O)C1=Nc2ccc(I)cc2S(=O)(=O)N1 [Example 86]
(IV) CCOC(=O)NC(CNC(=O)C1=Nc2ccccc2S(=O)(=O)N1)c1ccccc1 (stereo not drawn) [Example 49]
(V) COc1ccccc1C(CNC(=O)C1=Nc2ccc(I)cc2S(=O)(=O)N1)c1ncco1 (stereo not drawn) [Example 184]
Data request: Sort by IC50, descending. // rank by listing labels in the order requested
Data returned: IV, III, I, II, V
(IV: 1680 nM, III: 96 nM, I: 24 nM, II: 14 nM, V: 8 nM)
